Would you mind telling me the reported relative viability of each entry?
Tested on: COR-L23
experiment: relative viability (nuclei count vs DMSO), 5 days (fraction); higher = more cells survive
test-parameters: first compound 8 µM
Numbers only.

Completed entries (count: 2):
1. C=C1C(=O)O[C@@H](CCCCCCCC)[C@@H]1C(=O)O [C-75] + CC1(C)CCC(c2ccc(Cl)cc2)=C(CN2CCN(c3ccc(C(=O)NS(=O)(=O)c4ccc(N[C@H](CCN5CCOCC5)CSc5ccccc5)c(S(=O)(=O)C(F)(F)F)c4)cc3)CC2)C1 [Navitoclax] (partner 0.5 µM) | 0.964
2. C=C1C(=O)O[C@@H](CCCCCCCC)[C@@H]1C(=O)O [C-75] + COc1cccc2cc(-c3nc([C@H]4CC[C@H](C(=O)O)CC4)n4ncnc(N)c34)[nH]c12 [OSI-027] (partner 0.5 µM) | 0.701

Parameters: items (list). Returns: relative viability for each item.
1. C=C1C(=O)O[C@@H](CCCCCCCC)[C@@H]1C(=O)O [C-75] + Cc1nc(Nc2ncc(C(=O)Nc3c(C)cccc3Cl)s2)cc(N2CCN(CCO)CC2)n1 [Dasatinib] (partner 0.075 µM)
2. C=C1C(=O)O[C@@H](CCCCCCCC)[C@@H]1C(=O)O [C-75] + CS(=O)(=O)N1CCN(Cc2cc3nc(-c4cccc5[nH]ncc45)nc(N4CCOCC4)c3s2)CC1 [Pictilisib] (partner 1 µM)

# output
[0.48, 0.693]

* * *

Tested on: NCI-H1734
experiment: relative viability (nuclei count vs DMSO), 5 days (fraction); higher = more cells survive
test-parameters: first compound 0.1581 µM
readout-kind: relative viability
Give bare numbers.

1. CC1(C)CCC(c2ccc(Cl)cc2)=C(CN2CCN(c3ccc(C(=O)NS(=O)(=O)c4ccc(N[C@H](CCN5CCOCC5)CSc5ccccc5)c(S(=O)(=O)C(F)(F)F)c4)cc3)CC2)C1 [Navitoclax] + O=C(c1cc(Cc2n[nH]c(=O)c3ccccc23)ccc1F)N1CCN(C(=O)C2CC2)CC1 [Olaparib] (partner 8 µM) | 0.534
2. CC1(C)CCC(c2ccc(Cl)cc2)=C(CN2CCN(c3ccc(C(=O)NS(=O)(=O)c4ccc(N[C@H](CCN5CCOCC5)CSc5ccccc5)c(S(=O)(=O)C(F)(F)F)c4)cc3)CC2)C1 [Navitoclax] + NC(=O)Nc1cc(-c2cccc(F)c2)sc1C(=O)N[C@H]1CCCNC1 [AZD7762] (partner 0.2 µM) | 0.543
3. CC1(C)CCC(c2ccc(Cl)cc2)=C(CN2CCN(c3ccc(C(=O)NS(=O)(=O)c4ccc(N[C@H](CCN5CCOCC5)CSc5ccccc5)c(S(=O)(=O)C(F)(F)F)c4)cc3)CC2)C1 [Navitoclax] + Nc1nc2[nH]cc(CCc3ccc(C(=O)N[C@@H](CCC(=O)O)C(=O)O)cc3)c2c(=O)[nH]1 [Pemetrexed] (partner 0.2 µM) | 0.367
4. CC1(C)CCC(c2ccc(Cl)cc2)=C(CN2CCN(c3ccc(C(=O)NS(=O)(=O)c4ccc(N[C@H](CCN5CCOCC5)CSc5ccccc5)c(S(=O)(=O)C(F)(F)F)c4)cc3)CC2)C1 [Navitoclax] + Cc1nc(Nc2ncc(C(=O)Nc3c(C)cccc3Cl)s2)cc(N2CCN(CCO)CC2)n1 [Dasatinib] (partner 0.075 µM) | 0.425

For each of the items listed, what is its relative viability?
1. CC1(C)CCC(c2ccc(Cl)cc2)=C(CN2CCN(c3ccc(C(=O)NS(=O)(=O)c4ccc(N[C@H](CCN5CCOCC5)CSc5ccccc5)c(S(=O)(=O)C(F)(F)F)c4)cc3)CC2)C1 [Navitoclax] + Cc1cc(Nc2cc(N3CCN(C)CC3)nc(Sc3ccc(NC(=O)C4CC4)cc3)n2)n[nH]1 [Tozasertib] (partner 0.1 µM)
2. CC1(C)CCC(c2ccc(Cl)cc2)=C(CN2CCN(c3ccc(C(=O)NS(=O)(=O)c4ccc(N[C@H](CCN5CCOCC5)CSc5ccccc5)c(S(=O)(=O)C(F)(F)F)c4)cc3)CC2)C1 [Navitoclax] + CS(=O)(=O)N1CCN(Cc2cc3nc(-c4cccc5[nH]ncc45)nc(N4CCOCC4)c3s2)CC1 [Pictilisib] (partner 1 µM)

# output
0.201
0.49

# input Recorded relative viability for CC1(C)CCC(c2ccc(Cl)cc2)=C(CN2CCN(c3ccc(C(=O)NS(=O)(=O)c4ccc(N[C@H](CCN5CCOCC5)CSc5ccccc5)c(S(=O)(=O)C(F)(F)F)c4)cc3)CC2)C1 [Navitoclax] + CC(=O)Nc1cccc(-n2c(=O)n(C3CC3)c(=O)c3c(Nc4ccc(I)cc4F)n(C)c(=O)c(C)c32)c1 [Trametinib] (partner 0.02 µM) with NCI-H1734, please?
# output 0.625
